- TARGET OR TEST SYSTEM: SCD1 (Mus musculus, UniProt P13516)
- Sequence (P13516 whole entry): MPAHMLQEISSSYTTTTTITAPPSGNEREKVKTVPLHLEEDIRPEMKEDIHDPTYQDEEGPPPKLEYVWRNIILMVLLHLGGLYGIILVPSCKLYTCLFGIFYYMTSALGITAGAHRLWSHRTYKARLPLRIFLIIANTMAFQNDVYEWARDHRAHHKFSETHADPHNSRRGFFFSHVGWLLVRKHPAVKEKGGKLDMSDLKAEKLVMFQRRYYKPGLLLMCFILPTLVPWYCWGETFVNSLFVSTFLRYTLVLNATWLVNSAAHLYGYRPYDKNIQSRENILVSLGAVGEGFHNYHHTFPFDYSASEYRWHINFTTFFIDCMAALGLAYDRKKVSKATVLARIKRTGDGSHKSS
MEASUREMENT LABEL: IC50

# annotated cases, reported IC50 shown
{"MOLECULE": "O=c1cc(N2CCN(Cc3ccccc3[N+](=O)[O-])CC2)nc[nH]1 [Example 27]", "TEST RESULT": "≤ 1000 nM"}
{"MOLECULE": "C=CCc1cccc(CN2CCN(c3cc(=O)[nH]cn3)CC2)c1O [Example 40]", "TEST RESULT": "≤ 1000 nM"}
{"MOLECULE": "O=c1cc(N2CCN(Cc3cc(C(F)(F)F)ccc3C(F)(F)F)CC2)nc[nH]1 [Example 9]", "TEST RESULT": "≤ 1000 nM"}
{"MOLECULE": "COc1cc(Br)cc(CN2CCN(c3cc(=O)[nH]cn3)CC2)c1O [Example 7]", "TEST RESULT": "≤ 1000 nM"}
{"MOLECULE": "O=c1cc(N2CCN(Cc3ccc(Cl)c(Cl)c3)CC2)nc[nH]1 [Example 15]", "TEST RESULT": "≤ 1000 nM"}

Dear colleague, could you send me IC50 for each of the items below? Thanks.
1. O=c1cc(N2CCN(Cc3cc(F)cc(F)c3O)CC2)nc[nH]1 [Example 44]
2. O=c1cc(N2CCN(Cc3cccc(Cl)c3)CC2)nc[nH]1 [Example 12]
3. O=c1cc(N2CCN(Cc3cccc(Cl)c3O)CC2)nc[nH]1 [Example 45]
4. N#Cc1cccc(CN2CCN(c3cc(=O)[nH]cn3)CC2)c1 [Example 10]
5. C=CCc1cc(CN2CCN(c3cc(=O)[nH]cn3)CC2)c(O)c(OC)c1 [Example 52]
6. O=c1cc(N2CCN(Cc3cc(Cl)ccc3O)CC2)nc[nH]1 [Example 46]
7. O=c1cc(N2CCN(Cc3cccc(Br)c3O)CC2)nc[nH]1 [Example 48]

Result string:
1: ≤ 1000 nM; 2: ≤ 1000 nM; 3: ≤ 1000 nM; 4: ≥ 1100 nM; 5: ≥ 1100 nM; 6: ≤ 1000 nM; 7: ≤ 1000 nM

Dear colleague, could you send me IC50 for each of the items below? Thanks.
1. COc1ccc(Br)cc1CN1CCN(c2cc(=O)[nH]cn2)CC1 [Example 6]
2. Cc1cccc(CN2CCN(c3cc(=O)[nH]cn3)CC2)c1 [Example 1]
3. O=c1cc(N2CCN(Cc3ccccc3C(F)(F)F)CC2)nc[nH]1 [Example 8]

Result string:
1: ≥ 1100 nM; 2: ≤ 1000 nM; 3: ≤ 1000 nM
